The origin of these recorded values is patent US6737383B1.

Test system: purple nutsedge
Experiment: Test B pre/postemergence purple nutsedge
Assay type: in vivo, Cyperus rotundus
Conditions: Preemergence, Rate 62 g/ha; scale 0 to 10 (0 no effect, 10 complete control)
Reported Nutsedge plant response rating is given for each of the following compounds.

These solved cases illustrate the format of a correct answer.
compound="COCCn1c(=O)on(C(=O)N(c2ccc(F)cc2F)C(C)C)c1=O [Compound 628]" test_value=3
compound="CC(C)N(C(=O)n1oc(=O)n(C(C)C)c1=O)c1ccc(Cl)cc1 [Compound 114]" test_value=0
compound="Cc1nn(C)c(Cl)c1-n1c(=O)on(C(=O)N(c2ccccc2)C(C)C)c1=O [Compound 121]" test_value=0
compound="CCCn1c(=O)on(C(=O)N(c2ccc(F)cc2F)C(C)C)c1=O [Compound 130]" test_value=0
compound="CCCn1c(=O)on(C(=O)N(c2ccc(F)cc2)C(C)C)c1=O [Compound 91]" test_value=0

Ask: Which Nutsedge plant response rating value belongs to C=CCn1c(=O)on(C(=O)N(c2ccc(Cl)cc2)C(C)C)c1=O [Compound 105] ?
Reply: 0

====

Reported Soybean plant response rating (0 to 10 scale) is given for each of the following molecules.
Tested on: soybean
Assay: Test B pre/postemergence soybean
Format: in vivo, Glycine max
Settings: Preemergence, Rate 125 g/ha
Answer using only a numeral; do not append any unit.

molecule="CC(C)N(C(=O)n1oc(=O)n(-c2ccc3ccccc3c2)c1=O)c1ccc(Cl)cc1 [Compound 333]" assayed_system=soybean test_value=0

Attention now shifts to the item below.
Ask: Which Soybean plant response rating (0 to 10 scale) value belongs to Cc1ccc(N(C(=O)n2oc(=O)n(-c3ccc4ccccc4c3)c2=O)C(C)C)cc1 [Compound 334] ?
Reply: 0

====

System: giant foxtail
Assay: Test B pre/postemergence giant foxtail
Type: in vivo, Setaria faberii
Conditions: Rate 62 g/ha, Preemergence; scale 0 to 10
Reported property: Giant foxtail plant response rating
Answer using only a numeral; do not append any unit.

These solved cases illustrate the format of a correct answer.
compound="CON=CC(C)n1c(=O)on(C(=O)N(c2ccccc2)C(C)C)c1=O (stereo not shown) [Compound 790]" test_value=10
compound="CC(C)N(C(=O)n1oc(=O)n(CCCCCl)c1=O)c1ccccc1 [Compound 792]" test_value=10
compound="CC(C)N(C(=O)n1oc(=O)n(C[C@H](C)Cl)c1=O)c1ccc(Cl)cc1 [Compound 748]" test_value=9

Attention now shifts to the item below.
Ask: Which Giant foxtail plant response rating value belongs to CC(C)N(C(=O)n1oc(=O)n(CCCCl)c1=O)c1ccc(Cl)cc1 [Compound 749] ?
Reply: 9

====

Tested on: sugar beet
Test: Test B pre/postemergence sugar beet
Format: in vivo, Beta vulgaris
Conditions: Preemergence, Rate 62 g/ha; scale 0 to 10 (0 no effect, 10 complete control)
Reported property: Sugarbeets plant response rating

These solved cases illustrate the format of a correct answer.
compound="CCN(CC)C(=O)Cn1c(=O)on(C(=O)N(c2ccccc2)C(C)C)c1=O [Compound 571]" test_value=0
compound="CC(C)N(C(=O)n1oc(=O)n(C(C)(C)C)c1=O)c1ccc(Cl)cc1 [Compound 118]" test_value=0

Ask: Which Sugarbeets plant response rating value belongs to CC(C)N(C(=O)n1oc(=O)n(C(CF)CF)c1=O)c1ccc(F)cc1F [Compound 595] ?
Reply: 6

Ask: Which Sugarbeets plant response rating value belongs to Cc1cc(C)c(-n2c(=O)on(C(=O)N(c3ccc(F)cc3)C(C)C)c2=O)c(C)c1 [Compound 60] ?
Reply: 0
